test system: UACC-257 melanoma; test: NCI tumour cell line growth inhibition, 48 h
Measured Property: TGI

Solved entries:
INSERT INTO results (molecule, measured_property, reported_measurement) VALUES
  ('Cc1ccc2[nH]c3c(ncc4[nH]c5ccccc5c43)c2c1', 'TGI', '33.2 µM'),
  ('COc1ccccc1S(=O)(=O)Nc1ccc2c(c1)CN(C)C(=O)N2', 'TGI', '> 100 µM');

QUERY: Quick one: give measured TGI for `O=C(c1ccc(Br)cc1)n1c2ccc(Br)cc2c2nc3ccccc3nc21`
RESULT: > 100 µM

====

tested on: A498 renal; test: NCI tumour cell line growth inhibition, 48 h
The entries below are paired with their reported TGI.

INSERT INTO assay_data (molecule, measured_property, reported_measurement) VALUES
  ('CCOC(=O)Nc1ccc(-c2nc(-c3cccc(OC)c3)c(-c3ccnc(Br)c3)[nH]2)cc1', 'TGI', '7.06 µM'),
  ('CCc1nc(N)nc(N)c1-c1ccc(NCCc2ccccc2)c([N+](=O)[O-])c1', 'TGI', '43.4 µM'),
  ('NC(N)=NCCCC(NC(=O)OCCCCCCn1ccc(N)nc1=O)C(=O)O (stereo unspecified)', 'TGI', '> 100 µM'),
  ('O=C1c2c(O)cc(O)cc2OC(c2ccc(O)cc2O)C1O (stereo unspecified)', 'TGI', '> 100 µM'),
  ('N[C@@H]1CCCN(c2c(/C=C3\SC(=O)NC3=O)cccc2-c2ccccc2)C1', 'TGI', '18.8 µM'),
  ('Clc1nc2n(c1/C=C/c1cccs1)CCS2', 'TGI', '57.9 µM'),
  ('CCOC(=O)c1cnc(-n2[nH]c3c(c2=O)CCCC3)[nH]c1=O', 'TGI', '> 100 µM'),
  ('O=C(NC(Nc1ccc(F)c(Cl)c1)(C(F)(F)F)C(F)(F)F)OCc1ccccc1', 'TGI', '> 100 µM'),
  ('CCC(C(=O)[O-])C(=O)[O-].CCC(C(=O)[O-])C(=O)[O-].N.N.NCCCCCCN.[Pt+4].[Pt+4]', 'TGI', '18.1 µM'),
  ('Cc1ccc(/C=C/C(=N/NC(=O)N/N=C(/C=C/c2ccc(C)cc2)C(C)(C)CN2CCCCC2)C(C)(C)CN2CCCCC2)cc1', 'TGI', '3.12 µM');

QUERY: Quick one: give measured TGI for `O=[N+]([O-])c1ccc2ncccc2c1Cl`
RESULT: 31.3 µM

QUERY: Quick one: give measured TGI for `N#CCCN(CCN(C(=O)Nc1ccccc1)c1ccccc1)C(=O)Nc1ccccc1`
RESULT: > 100 µM

QUERY: Quick one: give measured TGI for `Cc1cc(NS(=O)(=O)c2ccc(Nc3c4ccccc4nc4ccc(C(=O)Nc5ccc(S(N)(=O)=O)cc5)cc34)cc2)no1`
RESULT: > 100 µM

QUERY: Quick one: give measured TGI for `C/C=C/C(=O)N1C(=O)OC[C@@H]1c1ccccc1`
RESULT: 45.7 µM

QUERY: Quick one: give measured TGI for `O=C1/C(=C/c2ccco2)N=C(c2ccccc2)N1c1cc2cc(Sc3ccccc3)ccc2[nH]1`
RESULT: > 25 µM

QUERY: Quick one: give measured TGI for `CN(C)c1n/c(=N/c2ncn[nH]2)ss1`
RESULT: > 100 µM

QUERY: Quick one: give measured TGI for `COc1ccc(CNc2nc3c(NC(C)=O)cc(C(F)(F)F)cc3nc2-c2ccccc2)cc1OC`
RESULT: > 100 µM

QUERY: Quick one: give measured TGI for `COc1ccc(C(=O)COc2cccc(/C=C3\CSc4ccc(C)cc4C3=O)c2)cc1`
RESULT: > 100 µM

QUERY: Quick one: give measured TGI for `CCOC(=O)c1cc2c(n1Cc1ccccc1)-c1oncc1CC2`
RESULT: 7.5 µM

QUERY: Quick one: give measured TGI for `C=C1C(=O)O[C@H]2[C@H]1CC/C(COC(=O)c1ccc(C#N)cc1)=C\CC[C@@]1(C)O[C@@H]21`
RESULT: 30 µM

QUERY: Quick one: give measured TGI for CCC[CH2][Sn]([CH2]CCC)([O]C(=O)C1CCC(=O)N1)[O]C(=O)C1CCC(=O)N1 (stereo unspecified)
RESULT: 0.517 µM

QUERY: Quick one: give measured TGI for `COc1cc2nc3cc([N+](=O)[O-])ccc3c(NCCCNCC(C)(C)O)c2cc1OC`
RESULT: 1.33 µM

QUERY: Quick one: give measured TGI for `Cc1ccc(/C=C/C(=O)c2cc(CN(C)C)c(O)c(CN(C)C)c2)cc1`
RESULT: 95.5 µM

QUERY: Quick one: give measured TGI for `O=C(CCCCCCSc1nc(-c2ccc(Cl)cc2)cc(-c2ccc(Cl)cc2)n1)NO`
RESULT: 4.05 µM

QUERY: Quick one: give measured TGI for `C[C@]12[C@@H]3CC[C@H]1[C@@H](OC(=O)Nc1cc([N+](=O)[O-])cc([N+](=O)[O-])c1)C(=O)N2CC3`
RESULT: > 100 µM

QUERY: Quick one: give measured TGI for N#CC1(C=O)c2ccccc2C=CN1C(=O)c1ccccc1 (stereo unspecified)
RESULT: > 100 µM

QUERY: Quick one: give measured TGI for `Cc1nc(N)sc1C(=O)Nc1cc(C(=O)NCCCN(C)C)n(C)c1`
RESULT: > 100 µM

QUERY: Quick one: give measured TGI for `Cc1ccc(S(=O)(=O)Cc2nc(-c3ccc(C(=O)NCc4cccnc4)cc3)oc2C)cc1`
RESULT: > 100 µM
